Measured Delta TC values are reported for all entries that follow.
# target-or-test-system: Sterol O-acyltransferase 1 (Rattus norvegicus) (UniProt O70536)
# Sequence (whole entry): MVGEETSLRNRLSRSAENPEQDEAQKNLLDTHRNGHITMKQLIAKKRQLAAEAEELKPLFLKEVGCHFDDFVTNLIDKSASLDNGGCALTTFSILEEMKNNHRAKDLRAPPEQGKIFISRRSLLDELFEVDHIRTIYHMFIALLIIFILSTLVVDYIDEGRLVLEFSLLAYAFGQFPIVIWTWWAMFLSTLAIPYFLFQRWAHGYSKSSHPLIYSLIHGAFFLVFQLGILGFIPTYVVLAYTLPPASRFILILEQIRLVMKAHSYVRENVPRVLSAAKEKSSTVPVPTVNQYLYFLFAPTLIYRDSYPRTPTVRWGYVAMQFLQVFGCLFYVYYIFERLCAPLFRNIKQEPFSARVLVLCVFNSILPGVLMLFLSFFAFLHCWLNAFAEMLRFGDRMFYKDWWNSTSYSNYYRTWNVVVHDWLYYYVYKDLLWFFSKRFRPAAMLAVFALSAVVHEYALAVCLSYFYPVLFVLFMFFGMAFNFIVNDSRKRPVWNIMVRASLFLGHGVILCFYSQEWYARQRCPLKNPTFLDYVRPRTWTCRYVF
# procedure-text: Acute in vivo activity was measured by the total plasma cholesterol concentration levels(TC) at dose 3 mg/kg
# Type: functional, organism-based
# Design: dose 3 mg/kg
measured-endpoint: Delta TC (%)

>>> recorded_number("CC(C)c1cccc(C(C)C)c1NC(=O)NS(=O)(=O)N(C1CCCCC1)C1CCCCC1")
-60
>>> recorded_number("CC(C)c1cccc(C(C)C)c1OC(=O)NS(=O)(=O)N(Cc1ccccc1)C(C)C")
-59
>>> recorded_number("CCCCCCNS(=O)(=O)NC(=O)Oc1c(C(C)(C)C)cc(C)cc1C(C)(C)C")
-10
>>> recorded_number("CC(C)c1cccc(C(C)C)c1OS(=O)(=O)NC(=O)Oc1c(C(C)(C)C)cc(C(C)(C)C)cc1C(C)(C)C")
-69
>>> recorded_number("Cc1cc(C(C)(C)C)c(OC(=O)NS(=O)(=O)Oc2c(C(C)C)cccc2C(C)C)c(C(C)(C)C)c1")
-52
>>> recorded_number("CCCCCCN(CCCCCC)S(=O)(=O)NC(=O)Oc1c(C(C)C)cccc1C(C)C")
-74
>>> recorded_number("CC(C)c1cccc(C(C)C)c1OC(=O)NS(=O)(=O)N1CCCC1")
-4
>>> recorded_number("CCCCCCCCCCCCCCCCCCOS(=O)(=O)NC(=O)Nc1c(C(C)C)cccc1C(C)C")
-5
>>> recorded_number("CC(C)c1cccc(C(C)C)c1OC(=O)N(C)S(=O)(=O)Oc1c(C(C)C)cccc1C(C)C")
-18
>>> recorded_number("CC(C)c1cccc(C(C)C)c1OC(=O)NS(=O)(=O)N(C(C)C)C(C)C")
-65
>>> recorded_number("CCC(C)N(C(C)CC)S(=O)(=O)NC(=O)Nc1c(C(C)C)cccc1C(C)C (configuration not stated)")
-65
>>> recorded_number("CCCCCCCCCCCCCCCCCCN(C)S(=O)(=O)NC(=O)Nc1c(C(C)C)cccc1C(C)C")
-18

====

# target-or-test-system: Sterol O-acyltransferase 1 (Rattus norvegicus, UniProt O70536)
pIC50: −log10 of the molar value.
Measured pIC50 values are reported for all entries that follow.
measured-endpoint: pIC50

>>> recorded_number("COc1cccc(OC)c1OC(=O)[N-]S(=O)(=O)Oc1c(C(C)C)cccc1C(C)C.[Na+]")
4.32
>>> recorded_number("CCCCCCCCCCN(CCCCCCCCCC)S(=O)(=O)NC(=O)Oc1c(C(C)(C)C)cc(C)cc1C(C)(C)C")
4.05
>>> recorded_number("CC(C)c1cccc(C(C)C)c1OC(=O)NS(=O)(=O)N(c1ccccc1)c1ccccc1")
4.24

====

# target-or-test-system: Sterol O-acyltransferase 1 (Rattus norvegicus)
# procedure-text: Chronic in vivo activity was measured by the total cholesterol concentration levels in cholesterol fed rats
# Type: functional, organism-based
measured-endpoint: Delta TC (%)

>>> recorded_number("CC(C)c1cccc(C(C)C)c1OS(=O)(=O)NC(=O)Oc1c(C(C)(C)C)cccc1C(C)(C)C")
-64
>>> recorded_number("CCC(C)N(C(C)CC)S(=O)(=O)NC(=O)Nc1c(C(C)C)cccc1C(C)C (configuration not stated)")
-62
>>> recorded_number("CCCCCCN(CCCCCC)S(=O)(=O)NC(=O)Oc1c(C(C)C)cccc1C(C)C")
-75
>>> recorded_number("CC(C)c1cc(F)cc(C(C)C)c1OC(=O)NS(=O)(=O)Oc1c(C(C)C)cccc1C(C)C")
-52
>>> recorded_number("Cc1cc(C(C)(C)C)c(OC(=O)NS(=O)(=O)NC(c2ccccc2)c2ccccc2)c(C(C)(C)C)c1")
-25
>>> recorded_number("Cc1cc(C(C)(C)C)c(OC(=O)NS(=O)(=O)Oc2c(C(C)C)cccc2C(C)C)c(C(C)(C)C)c1")
-66
>>> recorded_number("CC(C)c1cccc(C(C)C)c1NC(=O)NS(=O)(=O)N(CC1CCCO1)CC1CCCO1 (configuration not stated)")
-56
>>> recorded_number("Cc1cc(C(C)(C)C)c(OC(=O)NS(=O)(=O)NCC(c2ccccc2)c2ccccc2)c(C(C)(C)C)c1")
-51
>>> recorded_number("CCCCCCCCCCCCOS(=O)(=O)NC(=O)Oc1c(C(C)C)cccc1C(C)C")
-56
>>> recorded_number("CC(C)c1cccc(C(C)C)c1NC(=O)NS(=O)(=O)N(C(C)C)C(C)C")
-38
>>> recorded_number("COc1cc(OC)c(OS(=O)(=O)NC(=O)Oc2c(C(C)C)cccc2C(C)C)c(OC)c1")
-37
>>> recorded_number("CC(C)CCN(CCC(C)C)S(=O)(=O)NC(=O)Nc1c(C(C)C)cccc1C(C)C")
-68
>>> recorded_number("CC(C)c1cc(C(C)C)c(OC(=O)NS(=O)(=O)Oc2c(C(C)C)cccc2C(C)C)c(C(C)C)c1")
-74
>>> recorded_number("CC(C)c1cccc(C(C)C)c1NC(=O)NS(=O)(=O)N(Cc1ccccc1)C(C)C")
-41
>>> recorded_number("COc1cc(C(C)C)c(OC(=O)NS(=O)(=O)Oc2c(C(C)C)cccc2C(C)C)c(C(C)C)c1")
-12
>>> recorded_number("COc1cccc(OC)c1OS(=O)(=O)NC(=O)Oc1c(C(C)C)cccc1C(C)C")
-62
>>> recorded_number("CCCCCCCCCCCCCCCCCCOS(=O)(=O)NC(=O)Nc1c(C(C)C)cccc1C(C)C")
-38
>>> recorded_number("CC(C)c1ccc(C(C)C)c(NC(=O)NS(=O)(=O)Oc2c(C(C)C)cccc2C(C)C)c1")
-43
>>> recorded_number("CC(C)c1cccc(C(C)C)c1NS(=O)(=O)NC(=O)Oc1c(C(C)C)cccc1C(C)C")
-9
>>> recorded_number("CC(C)c1cccc(C(C)C)c1OC(=O)NS(=O)(=O)Nc1ccccc1")
-33
>>> recorded_number("Cc1cc(C(C)(C)C)c(OC(=O)NS(=O)(=O)Nc2c(C(C)C)cccc2C(C)C)c(C(C)(C)C)c1")
-38
>>> recorded_number("CC(C)c1cccc(C(C)C)c1NC(=O)NS(=O)(=O)N(Cc1ccccc1)Cc1ccccc1")
-28
>>> recorded_number("COc1cc(C(C)(C)C)c(OC(=O)NS(=O)(=O)Nc2c(C(C)C)cccc2C(C)C)c(C(C)(C)C)c1")
-47
>>> recorded_number("CC(C)c1cccc(C(C)C)c1NC(=O)NS(=O)(=O)N(C)CCc1ccccc1")
-45
>>> recorded_number("CC(C)c1cccc(C(C)C)c1OC(=O)NS(=O)(=O)N(Cc1ccccc1)C(C)C")
-69
>>> recorded_number("CC(C)c1cccc(C(C)C)c1NC(=O)NS(=O)(=O)Nc1c(C(C)C)cccc1C(C)C")
-37
>>> recorded_number("CCCCCCCCN(C)S(=O)(=O)NC(=O)Oc1c(C(C)C)cccc1C(C)C")
-64
>>> recorded_number("CC(C)c1cc(C(C)C)c(NC(=O)NS(=O)(=O)Oc2c(C(C)C)cccc2C(C)C)c(C(C)C)c1")
-59
>>> recorded_number("CC(C)c1cccc(C(C)C)c1NC(=O)NS(=O)(=O)N(C(C)C)C(C)(C)C")
-48
>>> recorded_number("CCCN(CCC)S(=O)(=O)NC(=O)Nc1c(C(C)C)cccc1C(C)C")
-53
>>> recorded_number("CC(C)CN(CC(C)C)S(=O)(=O)NC(=O)Nc1c(C(C)C)cccc1C(C)C")
-62
>>> recorded_number("CC(C)c1cccc(C(C)C)c1OS(=O)(=O)NC(=O)Oc1c(-c2ccccc2)cccc1-c1ccccc1")
-38
>>> recorded_number("CC(C)c1cc(O)cc(C(C)C)c1OC(=O)NS(=O)(=O)Oc1c(C(C)C)cccc1C(C)C")
-25
>>> recorded_number("CC(C)c1cccc(C(C)C)c1OC(=O)NS(=O)(=O)N(C(C)C)C(C)C")
-59
>>> recorded_number("CCCCCN(CCCCC)S(=O)(=O)NC(=O)Oc1c(C(C)C)cccc1C(C)C")
-73
>>> recorded_number("CC(C)c1cccc(C(C)C)c1OS(=O)(=O)NC(=O)Oc1c(C(C)C)c(C(C)C)c(F)c(C(C)C)c1C(C)C")
-74
>>> recorded_number("CC(C)c1cccc(C(C)C)c1NC(=O)NS(=O)(=O)N(c1ccccc1)c1ccccc1")
-36
